Source listed as paper PMC11062899.

# METHOD NOTES: in vivo
# CONDITION: male, Wistar Han, rat, iv, 1 mg/kg, Concentration in blood samples
PROPERTY NAME: level at time molar at 2 h (nM)
One number for each entry, in nM.

Look up level at time molar at 2 h for this molecule: O=C1C[C@H]2CCCN2C(=O)[C@H](Cc2ccccc2)NC(=O)[C@@H](NC(=O)c2ccc(Cl)cc2)CCC=CCCCCN1 (mixture of isomers) [peptide 46]
53.5

---

# METHOD NOTES: Metabolic stability in rat liver microsomes (RLMs)
# CONDITION: rat, microsomes, Half Life Mean, rat liver microsomes, mean of R1-R3
PROPERTY NAME: half-life

Your task in this section: give half-life for each listed record.
1. CC(C)[C@@H]1NC(=O)CCSCCS(=O)(=O)CCSCCNC(=O)[C@H](CNC(=O)c2ccco2)NC1=O
2. O=C1C[C@@H]2CCCN2C(=O)[C@@H](NC(=O)c2cccc(Cl)c2)CSCc2cccc(n2)CSCCNC(=O)[C@H](Cc2c[nH]c3ccccc23)N1

1. > 60 min
2. 31.3 min

---

# METHOD NOTES: Metabolic stability in rat liver microsomes (RLMs)
# CONDITION: rat, microsomes, RLM CL, R1, RLM CL, replicate R1, summary block
Assign microsomal CLint to each entry below.
Answers are plain numbers, in µL/min/mg.

Below is a list of compounds. For each, state its recorded microsomal CLint.
1. O=C1C[C@H]2CCCN2C(=O)[C@H](Cc2ccccc2)NC(=O)[C@@H](NC(=O)c2ccc(Cl)s2)CSCc2cccc(n2)CSCCN1
2. O=C1CSCCC[C@H](NC(=O)c2ccc(Cl)s2)C(=O)N[C@@H](Cc2ccccc2)C(=O)N2CCC[C@@H]2CC(=O)NCCSC1
3. O=C1C[C@H]2CCCN2C(=O)[C@H](Cc2ccccc2)NC(=O)[C@@H](NC(=O)c2ccc(Cl)s2)CCCSC/C=C/CSCCN1
4. O=C1C[C@H]2CCCN2C(=O)[C@H](Cc2ccccc2)NC(=O)[C@@H](NC(=O)c2ccc(Cl)s2)CSC/C=C/CSCCN1 [peptide 32]

1: 53.6; 2: 81.1; 3: 70.7; 4: 278

---

# TGT: human α-thrombin (Homo sapiens, UniProt P00734)
# METHOD NOTES: Sub-library screen for active and permeable cyclic peptides (PAMPA plus thrombin inhibition)
# Format: biochemical
# CONDITION: PAMPA acceptor well after 14 h, 5 μM donor; crude; slopes normalized to DMSO
PROPERTY NAME: Residual thrombin activity: Top sample
Numbers only.

For orientation, consider the following solved cases.
Record request: Residual thrombin activity: Top sample value, item CN1C(=O)[C@@H](NC(=O)c2ccc(Cl)s2)CCCSCc2ccc(cc2)CSCCNC(=O)C[C@H]2CCCN2C(=O)[C@@H]1Cc1ccccc1
101.7

// lookup Residual thrombin activity: Top sample for COc1ccc(C[C@@H]2NC(=O)[C@@H](NC(=O)c3ccc(Cl)s3)CCSC/C=C/CSCCNC(=O)C[C@H]3CCCN3C2=O)cc1
100.6

What does the data say about its Residual thrombin activity: Top sample? Entry: CN1C(=O)[C@@H](NC(=O)c2ccc(Cl)s2)CCCSCc2cccc(n2)CSCCNC(=O)C[C@H]2CCCN2C(=O)[C@@H]1Cc1ccccc1
99.5

What does the record list as Residual thrombin activity: Top sample for O=C1C[C@H]2CCCN2C(=O)[C@H](Cc2ccc(Cl)cc2)NC(=O)[C@@H](NC(=O)c2ccc(Cl)s2)CSC/C=C/CSCCN1 ?
98.7

Please supply Residual thrombin activity: Top sample for each of the following items, keeping them in order.
1. N#Cc1ccc(C[C@@H]2NC(=O)[C@@H](NC(=O)c3ccc(Cl)s3)CCSCc3ccc(cc3)CSCCNC(=O)C[C@H]3CCCN3C2=O)cc1
2. O=C1C[C@H]2CCCN2C(=O)[C@H](Cc2ccccc2)NC(=O)[C@@H](NC(=O)c2ccc(Cl)s2)CSCc2cccc(n2)CSCCN1

1. 101.8
2. 77.6
